This listing pairs binders with measured hu-IL1RaP ELISA (OD).
Target Or Test System: T1, rhIL-1RAcP/Fc Chimera (human, UniProt Q9NPH3 21-359)
T1 construct: also called P013_03; P013-03
T1 sequence (looked up): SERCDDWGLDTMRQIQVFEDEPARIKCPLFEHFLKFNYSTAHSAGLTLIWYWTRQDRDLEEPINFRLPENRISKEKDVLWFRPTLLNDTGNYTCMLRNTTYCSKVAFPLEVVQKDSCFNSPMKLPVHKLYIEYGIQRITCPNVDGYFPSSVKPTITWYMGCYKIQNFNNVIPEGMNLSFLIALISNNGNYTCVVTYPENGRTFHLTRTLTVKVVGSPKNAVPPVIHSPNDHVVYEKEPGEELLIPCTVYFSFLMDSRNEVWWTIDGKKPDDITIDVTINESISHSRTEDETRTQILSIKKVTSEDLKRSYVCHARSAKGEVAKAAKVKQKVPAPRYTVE
Assay Procedure: ELISA, primary supernatant, coated hu-IL-1RAcP-Fc
Property: hu-IL1RaP ELISA (OD)

>>> result("P013.S.01.B.G02 (antibody, V domains shown, rabbit monoclonal antibody; also called P013.A.00085.B11) VH: QSVEESGGRLVTPGTPLTLTCTVSGFSLSSYYMSWVRQAPGKGLEWIGYIYAAGPITYYATWAKGRFTISKTSTTVDLKITSPTTEDTATYFCVRDGSGSGTYGYNGMDLWGPGTLVTVSS VL: AYDMTQTPASVEAAVGGTVNIKCQASQSISNWLAWYQQKPGQRPKLLIYRASTLASGVSSRFKGSGSGTQFTLTISGVESADAATYYCQQGASTTDVDNVFGGGTEVVVK")
"3.7 OD"
>>> result("P013.S.02.B.D01 (antibody, V domains shown, rabbit monoclonal antibody; also called P013.A.00141.G02) VH: LEQSGGGAEGGLVKPGGSLELCCKASGFSLSSNYWMCWVRQAPGKGLEWIGCIYAGSSDSTYYASWVNGRFTLSRDIDQSTGCLQLNSLTAADTAMYYCASPGYGGYGYYGLWGQGTLVTVSS VL: ALVMTQTPSPVSAAVGGTVTINCQASEDIYSNLAWFQQKPGQPPKLLIYDASTLASGVPSRFSGSGSGTEFTLTISGLQSDDAATYYCLGVYTYISPDGTDNAFGGGTEVVVK")
"3.4 OD"
>>> result("P013.S.02.B.D04 (antibody, V domains shown, rabbit monoclonal antibody; also called P013.A.00086.A06) VH: QSLEESGGDLVQPGGSLTLTCKASGFSFSASYWICWVRQAPGKGLEWIGCIYIGGGGRYYASWAKGRFTISKTSSTTVTLQMTSLTAADTATYFCARDPVTSGSDYVYDLWGPGTLVTVAS VL: AYDMTQTPASVEVAVGGTVTIKCQASESISTWLAWYQQKPGQPPNLLIYRASTLASGVPSRFYGSGYGTEFTLTISGVESADAATYYCQQGYTVNNIDNVFGGGTEVVVK")
"3.6 OD"
>>> result("P013.S.01.B.H04 (antibody, V domains shown, rabbit monoclonal antibody; also called P013.A.00014.G05) VH: QSVEESGGRLVTPGTPLTLTCTVSGFSLDSYAMGWVRQAPGKGLEWIGIINSYGSIYYASWAKGRFTISKTSTTVDLKMTSLTTEDTATYFCARSAYSNNGDRLHLWGQGTLVTVSS VL: DIVMTQTPSPVSGAVGGTVTIKCQASEDIYSNLAWYQQKPGQPPKLLIYYVSTLESGVPSRFKGSRSGTDYTLTISDLESADAATYYCQCTEGGSGSDYTFGGGTEVVVK")
"3.7 OD"
>>> result("P013.S.01.B.F06 (antibody, V domains shown, rabbit monoclonal antibody; also called P013.A.00045.E09) VH: QSVEESGGRLVTPGTPLTLTCTVSGIDLSSDAVGWVRQAPGKGLEYIGIIVSSGETFYASWARGRCTISKTSSTTVDLRITRLTTEDTATYFCARGGPGYSFDTEYAFDPWGPGTLVTVSS VL: AFEMTQTPASVEVAVGGTVTINCQASQSIGSWLSWYQQKVGQRPKLLISRASTLASGVPSRFKGSGSGTEYTLTISGVQSDDAATFYCQQGATTYDVDNVFGGGTEVVVR")
"2.8 OD"

Value source: patent US20190106487A1
